System: UACC-62 melanoma
RUN_DESCRIPTION: NCI tumour cell line growth inhibition, 48 h
This listing pairs compounds with measured GI50.

SMILES_NOTATION | GI50
O=C(Nc1cccc(-n2cc(-c3ccncc3)c(-c3cc(O)cc(Cl)c3)n2)c1)Nc1ccc(Cl)c(C(F)(F)F)c1 | 2.08 µM
NC(=O)c1c(NC(=O)c2ccccn2)sc2c1CCC(=O)C2 | 2.52 µM
CCn1cnc(C[C@H](NC(=O)[C@@H](NC(=O)Nc2cc(C(F)(F)F)cc(C(F)(F)F)c2)C(C)C)C(=O)OC)c1 | 6.45 µM
Cc1cc(Cl)ccc1Nc1nc(C(F)(F)F)ccc1C(=O)N/N=C/c1ccc(Cl)cc1 | 2.14 µM

----------
Tested on: NCI-H23 lung
RUN_DESCRIPTION: NCI tumour cell line growth inhibition, 48 h

MOLECULE | MEASURED_ON | TGI
COc1cccc2c1ccc1nc3cccc(C(=O)N[C@H](C)CN(C)C)c3nc12 | NCI-H23 lung | 0.382 µM
O=C(c1cccs1)N(C(=S)OC12CC3CC(CC(C3)C1)C2)c1ccccc1 | NCI-H23 lung | > 100 µM
C[C@@H](c1ccccc1)N1CN(C(=O)OCc2ccccc2)C(C)(C)CC1=O | NCI-H23 lung | > 100 µM
NCCCCc1cc(O)c2c(c1O)C(=O)c1ccccc1C2=O | NCI-H23 lung | 28.4 µM
C[C@]12CCc3sc(NCCc4ccccc4)nc3C1=CC[C@@H]1[C@@H]2CC[C@]2(C)C(=O)CC[C@@H]12 | NCI-H23 lung | > 100 µM
Cc1ccc(C(CC(=O)c2ccccc2)C2C(=O)NC(=O)NC2=O)cc1 (centres undefined) | NCI-H23 lung | > 100 µM
CCC(C)C1=C(OC(C)=O)[N+]2([O-])Oc3ccc(-c4c(OC(C)=O)c(OC(C)=O)c(-c5ccc(OC(C)=O)cc5)c(OC(C)=O)c4OC(C)=O)cc3OC2(C(C)CC)C(=O)N1OC(C)=O (centres undefined) | NCI-H23 lung | > 50 µM
COc1ccc(C(=O)/C=C/c2cccc([N+](=O)[O-])c2)c(OC)c1 | NCI-H23 lung | > 50 µM
COC(=O)/C(=N\NC(=O)C[N+](C)(C)C)C(C(=O)OC)C(=O)C(=O)Nc1ccccc1C(N)=O (centres undefined) | NCI-H23 lung | > 100 µM

----------
Test system: SF-539 CNS
RUN_DESCRIPTION: NCI tumour cell line growth inhibition, 48 h; in the data active = GI50 below about 0.43 µM; inactive = the rest
Classes used: active, inactive

SMILES_NOTATION | CATEGORY
c1csc(-c2cn3nc(-c4c[nH]c5ccccc45)sc3n2)c1 | inactive
O=C1C(N2CC2)=C(N2CC2)C(=O)C(N2CC2)=C1N1CC1 | active
COc1ccc(-c2nc(-c3ccccc3)c(-c3ccccc3)[nH]2)cc1OC1CCCC1 | inactive

----------
System: SF-295 CNS
RUN_DESCRIPTION: NCI tumour cell line growth inhibition, 48 h

COMPOUND | TGI
COC(=O)CC1NC(=O)[C@@H]1C(C)O (stereo partly specified) | > 100 µM
C1COCCN1.C1COCCN1.NC1CCCCC1N.[Cl-].[Pt+2] (stereo unspecified) | > 100 µM
COc1ccc2c3c1O[C@H]1C(OC)C=CC4C(C2)N(Cc2cccs2)CCC341 (stereo partly specified) | > 100 µM
COC(=O)c1ccccc1OCc1cc(=O)oc2ccc(C)cc12 | > 81.2 µM
Cc1cn(C2CC(O)C(COC(=O)NCCC(F)(F)C(F)(F)C(F)(F)C(F)(F)F)O2)c(=O)[nH]c1=O (stereo unspecified) | > 100 µM
O=C1Nc2nc3ccccc3n2N=C2CCCC12 (stereo unspecified) | > 100 µM

All figures here come from PubChem BioAssay (NCI).
